Data origin, for the record: PubChem BioAssay (NCI)

Assay: NCI Yeast Anticancer Drug Screen. Data for the rad52 strain (AID 147);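 note: 0% = growth of vehicle-treated control cultures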
Conditions: S. cerevisiae rad52 mutant growth inhibition; at 3.7 µM; hits give high values
Compounds without any hit were thinned out: in the full panel of roughly 79,000, 15% have a hit.
assay-readout: growth inhibition (%)
Write it as a number; the unit % goes unstated.

query: Recall and state the measured growth inhibition for c1cc(-c2sc(-c3ccncc3)c(-c3ccncc3)c2-c2ccncc2)ccn1 .
result: 17

query: Dear colleague, please send me the reported growth inhibition for O=C(NCCCCN(CCCNC(=O)C(F)(F)F)Cc1ccccc1)C(F)(F)F when you can.
result: 36

query: Output measured growth inhibition for this item: CCC[CH2][Ge]([CH2]CCC)([CH2]CCC)[O]C(=O)C(O)c1ccccc1 (centres undefined)
result: 11

query: Provide growth inhibition value for the following molecule: COc1cc([C@@H]2c3cc4c(cc3[C@@H](NC(=O)NO)[C@H]3COC(=O)[C@H]23)OCO4)cc(OC)c1O
result: 2

query: Retrieve growth inhibition measured for COc1ccc2c3c1OC(C)C31CC(=O)CCC1CC2 (centres undefined) and print it.
result: -1

query: Determine from records and report growth inhibition for CN1CCN(C(=O)c2cccc3cccc(C(=O)O)c23)CC1
result: 10

query: Indicate its recorded growth inhibition; the molecule in question is O=C(O)c1c2ccc(Cl)cc2nc2[nH]c(=O)[nH]c(=O)c12
result: -34

query: Please list growth inhibition recorded for the molecule CCCCN(CCCC)c1ccc(N=Nc2ccc(S(=O)(=O)O)cc2)cc1
result: 48

query: Answer with reported growth inhibition of O=c1c2ccccc2nc(-c2cccc([N+](=O)[O-])c2)n1O
result: 45

query: Determine its reported growth inhibition: Cc1nc2sc3c(c2c(=O)o1)CCCC3
result: 2

query: Give me measured growth inhibition, please, for this molecule: CCCCCCC1OCC(O)C(OCCCC)O1 (centres undefined)
result: -4

query: Given the molecule COC(=O)C1CCCCC1C(=O)Nc1ccccc1 (centres undefined) , write its reported growth inhibition.
result: 1

query: Read off the recorded growth inhibition for C[n+]1c(-c2ccc(/C=N/NC(=O)c3ccc(C(=O)N/N=C/c4ccc(-c5cn6ccccc6[n+]5C)cc4)cc3)cc2)cn2ccccc21
result: 14

query: Note down growth inhibition recorded for Fc1cc(F)c(F)c(S)c1F
result: -10

query: Tell me its growth inhibition given Cc1cc(O)c(C(C)C)cc1SC#N as the entry.
result: -12

query: Look up and state reported growth inhibition for CC(=O)Oc1ccc2c(c1)Cc1cc(N3C(=O)C=CC3=O)ccc1-2
result: 29

query: # return recorded growth inhibition for entry CCOC(=O)Nc1ccc(C)c(NC(=O)OCC)c1
result: 8

query: Please indicate growth inhibition recorded for CC(C)CCC[C@@H](C)[C@H]1CC[C@H]2[C@@H]3CC[C@H]4C[C@H](N)CC[C@]4(C)[C@H]3CC[C@]12C
result: 2

query: Recall and state the measured growth inhibition for CC1(C2CC2)C(C#N)(C#N)C1(C#N)C#N .
result: 10

query: Tell me measured growth inhibition for Cn1c(-c2ccc(/C=N\N3CCN(/N=C/c4ccc(-c5c[n+]6ccsc6n5C)cc4)CC3)cc2)c[n+]2ccsc12 please.
result: 19

query: Give recorded growth inhibition. CCN(CC)CCNc1ccc2ncn3c4ccc(O)cc4c(=O)c1c23
result: 28

query: Determine from records and report growth inhibition for Cc1cccc2c1C1c3c(C)cccc3C(CC(=O)O)CC1CC2 (centres undefined)
result: 92

query: Indicate its recorded growth inhibition; the molecule in question is CCN1CCC(O)(c2ccc(Oc3ccc(Cl)cc3)cc2)C(C(=O)c2ccc(Oc3ccc(Cl)cc3)cc2)C1 (centres undefined)
result: -14

query: Determine its reported growth inhibition: NC(=S)N1N=C2c3ccccc3CC[C@H]2[C@@H]1c1ccc(Cl)cc1
result: 31

query: Please look at this molecule and report its growth inhibition: CC(C(=O)N1C(=O)N(C(=O)C(C)C(O)c2ccccc2)C2CCCCC21)C(O)c1ccccc1 (centres undefined)
result: 8

query: Give the reported growth inhibition for this molecule. CN(C)CC1=Nc2cccc3cccc(c23)N1
result: -6

query: Give growth inhibition for the following molecule: CCCCCCCCCCCCOCCOCCOCC(N)=O
result: -11

query: Indicate its recorded growth inhibition; the molecule in question is C=COC(=O)N[C@H]1CCc2cc(OC)c(OC)c(OC)c2-c2ccc(SC)c(=O)cc21
result: 1

query: Check the records and state growth inhibition for O=C1C(=O)N(c2ccccc2)[C@@]2(c3ccccc3)C(=Nc3ccccc3)OC(c3ccccc3)=C12
result: 0

query: Give the value of growth inhibition reported for the following: O=C1C(=O)c2cccc([N+](=O)[O-])c2-c2ccccc21
result: -4

query: Please supply the value of reported growth inhibition for the item O=[N+]([O-])c1cccc2nc3ccccc3c(NCCCN3CCCCC3)c12
result: 95

query: Recall and state the measured growth inhibition for OC(Cc1cccc2ccccc12)CN1CCC(c2ccccc2)CC1 (centres undefined) .
result: 66

query: Answer with the recorded growth inhibition for the molecule listed here: CCCCCCCCCCCNC=O
result: -30

query: Name the recorded growth inhibition of the item CC(=O)O/N=C1C=C/C(=C(/C#N)c2ccccc2)C=C/1C in your answer.
result: 15

query: Fill in growth inhibition for record CCN(CC)CCNc1ccc2nc(C)n3c4ccc(OC)cc4c(=O)c1c23
result: 47

query: Determine from records and report growth inhibition for Cc1ccc([N+](=O)[O-])c2c(NCCC[N+](C)(C)[O-])c3ccccc3nc12
result: -4

query: Indicate its recorded growth inhibition; the molecule in question is CC(C)OP(=O)(OC(C)C)/C(Cl)=N/Nc1ccc([N+](=O)[O-])cc1
result: -6

query: Indicate its recorded growth inhibition; the molecule in question is O=C(/C=C/c1ccsc1)c1cccs1
result: -18

query: Read the entry Cc1cc(OCc2nc(N)nc(N)c2-c2ccc(Cl)c(Cl)c2)ccc1[N+](=O)[O-] and write its reported growth inhibition.
result: 1
